Measured Target: hNTS2 receptor (Homo sapiens, UniProt O95665)
Construct: membranes prepared from them
Sequence (O95665 whole entry): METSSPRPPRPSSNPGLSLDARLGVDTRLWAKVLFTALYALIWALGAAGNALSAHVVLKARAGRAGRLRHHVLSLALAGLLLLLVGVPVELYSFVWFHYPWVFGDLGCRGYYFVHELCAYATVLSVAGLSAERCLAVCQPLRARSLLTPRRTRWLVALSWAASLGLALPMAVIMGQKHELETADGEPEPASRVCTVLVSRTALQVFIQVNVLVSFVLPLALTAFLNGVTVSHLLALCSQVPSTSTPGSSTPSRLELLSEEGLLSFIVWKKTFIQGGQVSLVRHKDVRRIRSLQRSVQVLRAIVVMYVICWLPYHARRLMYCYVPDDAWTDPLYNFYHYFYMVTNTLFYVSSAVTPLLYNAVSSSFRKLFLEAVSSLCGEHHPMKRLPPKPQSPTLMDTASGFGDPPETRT
Procedure Details: Competitive radioligand binding assay on the hNTS2 receptor
Test Context: ratio IC50 for NTS1 : IC50 for NTS2
Where a SMILES comes first, the peptide text is derived from it. Bridges are numbered along the chain shown (N, C = ends). [ ]: non-standard residue; d: D form. Phe(3-Br) = N[C@@H](Cc1cccc(Br)c1)C(=O)O; Ala(cPent) = N[C@@H](CC1CCCC1)C(=O)O; Bta = N[C@@H](Cc1csc2ccccc12)C(=O)O; AllylGly = C=CC[C@H](N)C(=O)O; Pen = CC(C)(S)[C@H](N)C(=O)O; S5 = C=CCCC[C@](C)(N)C(=O)O; hLys = NCCCCC[C@H](N)C(=O)O; Dap = NC[C@H](N)C(=O)O
Metric: Selectivity

- CC(C)C[C@H](NC(=O)[C@H](Cc1ccc(O)cc1)NC(=O)[C@@H]1CCC(=O)NC[C@H](N)C(=O)N[C@@H](CCCCN)C(=O)N[C@@H](CCCCN)C(=O)N1)C(=O)O [compound 98, c[DapKKE]YL] (H-[Dap]KKEYL-OH; lactam 1-4): >12.2
- CC(C)C[C@H](NC(=O)[C@H](Cc1csc2ccccc12)NC(=O)[C@@H]1CC=CC[C@H](N)C(=O)N[C@@H](CCCCN)C(=O)N[C@@H](CCCCN)C(=O)N1)C(=O)O [compound 168, c[G(All)KKG(All)]A(3-benzothienyl)L] (H-[AllylGly]KK[AllylGly][Bta]L-OH; staple 1-4): 979
- CC(C)C[C@H](NC(=O)[C@H](Cc1ccc(O)cc1)NC(=O)[C@@H]1CC=CC[C@H](N)C(=O)N[C@@H](CCCCCN)C(=O)N[C@@H](CCCCN)C(=O)N1)C(=O)O [compound 150, c[G(All)homolysineKG(All)]YL] (H-[AllylGly][hLys]K[AllylGly]YL-OH; staple 1-4): 533
- CC(C)C[C@H](NC(=O)[C@H](Cc1ccc(O)cc1)NC(=O)[C@@H]1CNC(=O)C[C@H](N)C(=O)N[C@@H](CCCCN)C(=O)N[C@@H](CCCCN)C(=O)N1)C(=O)O [compound 103, c[DKKDap]YL] (H-DKK[Dap]YL-OH; lactam 1-4): >11.0
- NCCCC[C@@H]1NC(=O)[C@H](CCCCN)NC(=O)[C@@H](N)CC=CC[C@@H](C(=O)N[C@@H](Cc2ccc(O)cc2)C(=O)N[C@@H](CC2CCCC2)C(=O)O)NC1=O [compound 67, c[G(All)KKG(All)]YA(cyclopentyl)] (H-[AllylGly]KK[AllylGly]Y[Ala(cPent)]-OH; staple 1-4): >32 680
- CC(C)C[C@H](NC(=O)[C@H](Cc1cccc(Br)c1)NC(=O)[C@@H]1CC=CC[C@H](N)C(=O)N[C@@H](CCCCN)C(=O)N[C@@H](CCCCN)C(=O)N1)C(=O)O [compound 115, c[G(All)KKG(All)]F(3-bromo)L] (H-[AllylGly]KK[AllylGly][Phe(3-Br)]L-OH; staple 1-4): >3523

Name the reported Selectivity value associated with the compound CC(C)C[C@H](NC(=O)[C@H](Cc1ccc(O)cc1)NC(=O)[C@@H]1CC=CCCC[C@](C)(N)C(=O)N[C@@H](CCCCN)C(=O)N[C@@H](CCCCN)C(=O)N1)C(=O)O [compound 89, c[G(alpha-Me-(4-Pentenyl))KKG(All)]YL] (H-[S5]KK[AllylGly]YL-OH; staple 1-4) >7553

Name the reported Selectivity value associated with the compound CC(C)C[C@H](NC(=O)[C@H](Cc1ccc(O)cc1)NC(=O)[C@H]1NC(=O)[C@H](CCCCN)NC(=O)[C@H](CCCCN)NC(=O)[C@@H](N)C(C)(C)SSC1(C)C)C(=O)O [compound 155, c[(Pen)KK(Pen)]YL] (H-[Pen]KK[Pen]YL-OH; disulfide 1-4) 315

Name the reported Selectivity value associated with the compound CC(C)C[C@H](NC(=O)[C@H](Cc1ccc(O)cc1)NC(=O)[C@@H]1CC=CC[C@H](N)C(=O)N[C@@H](Cc2c[nH]cn2)C(=O)N[C@@H](CCCCN)C(=O)N1)C(=O)O [compound 83, c[G(All)HKG(All)]YL] (H-[AllylGly]HK[AllylGly]YL-OH; staple 1-4) >76
